Can you tell me % cells binding to HA for the items I'm about to list?
# target_entity: H1-SC (Influenza A virus)
# protocol_summary: FACS, HA on mammalian cells; 2nd only 7.5
Answers are plain numbers, in %.

FHF11v9 (antibody, V domains shown) VH: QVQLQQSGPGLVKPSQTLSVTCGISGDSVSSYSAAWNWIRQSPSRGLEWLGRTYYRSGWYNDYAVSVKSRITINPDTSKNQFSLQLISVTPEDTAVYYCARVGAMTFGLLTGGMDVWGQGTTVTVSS VL: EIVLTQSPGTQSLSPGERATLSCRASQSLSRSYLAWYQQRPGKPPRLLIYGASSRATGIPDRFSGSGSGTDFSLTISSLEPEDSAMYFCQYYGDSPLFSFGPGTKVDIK; 80

Dear colleague, could you please provide % cells binding to HA for the binders listed below?
1. FHF11 (antibody, V domains shown) VH: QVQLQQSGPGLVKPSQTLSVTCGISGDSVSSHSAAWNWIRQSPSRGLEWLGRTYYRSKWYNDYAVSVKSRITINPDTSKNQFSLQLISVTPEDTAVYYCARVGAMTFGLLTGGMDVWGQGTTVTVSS VL: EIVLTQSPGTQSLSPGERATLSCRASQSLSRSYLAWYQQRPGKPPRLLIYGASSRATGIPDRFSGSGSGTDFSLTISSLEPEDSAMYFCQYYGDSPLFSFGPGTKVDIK
2. FHF11v3 (antibody, V domains shown) VH: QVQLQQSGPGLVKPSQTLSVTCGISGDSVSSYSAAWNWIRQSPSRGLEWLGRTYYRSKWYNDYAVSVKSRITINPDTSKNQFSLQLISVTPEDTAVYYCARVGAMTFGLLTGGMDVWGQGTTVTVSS VL: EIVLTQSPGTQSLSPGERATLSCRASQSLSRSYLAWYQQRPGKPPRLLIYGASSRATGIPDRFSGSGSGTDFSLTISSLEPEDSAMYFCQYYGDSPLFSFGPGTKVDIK

[83, 82]
